Data provenance is patent US7432257B2.

- ASSAY_TARGET: UniProt P33535
- Sequence (P33535 whole entry): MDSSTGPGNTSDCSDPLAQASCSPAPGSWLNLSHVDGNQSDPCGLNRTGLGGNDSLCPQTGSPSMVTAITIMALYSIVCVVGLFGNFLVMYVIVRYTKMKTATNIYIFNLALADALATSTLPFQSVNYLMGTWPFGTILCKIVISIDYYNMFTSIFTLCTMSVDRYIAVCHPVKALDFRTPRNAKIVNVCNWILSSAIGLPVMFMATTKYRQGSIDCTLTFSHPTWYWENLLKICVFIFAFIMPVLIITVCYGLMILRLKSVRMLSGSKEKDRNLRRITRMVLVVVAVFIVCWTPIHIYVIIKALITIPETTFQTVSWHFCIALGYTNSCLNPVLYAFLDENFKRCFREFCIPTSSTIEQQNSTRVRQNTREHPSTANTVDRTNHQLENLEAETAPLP
Listing of recorded pKi by entry.
When answering, recall that pKi equals minus log10 of the concentration in mol/L, and write that number alone.

The following molecules have reported results that may help.
NC(=O)c1ccc2c(c1)Oc1ccccc1N2C1CCNCC1 [Compound 12a] : 5.91
N#Cc1ccc2c(c1)Oc1ccccc1N2C1CCNCC1 [Compound 11a] : 5.24
c1ccc2c(c1)Oc1cc(-c3nnn[nH]3)ccc1N2C1CCN(Cc2ncc[nH]2)CC1 : 5.56

Request the reported pKi associated with CC(=O)Nc1ccccc1-c1ccc2c(c1)Oc1ccccc1N2C1CCN(Cc2ccccc2)CC1 5.48

Request the reported pKi associated with CC(=O)Nc1ccccc1-c1ccc2c(c1)Sc1ccccc1N2C1CCN(Cc2ccccn2)CC1 6.08

Request the reported pKi associated with c1ccc(CN2CCC(N3c4ccccc4Sc4cc(-c5cccnc5)ccc43)CC2)nc1 5.54
